Give measured polymerase ribozyme fitness (log ratio) for each item. Keep answers brief.
B1: TPR 5TU (parent)
chain: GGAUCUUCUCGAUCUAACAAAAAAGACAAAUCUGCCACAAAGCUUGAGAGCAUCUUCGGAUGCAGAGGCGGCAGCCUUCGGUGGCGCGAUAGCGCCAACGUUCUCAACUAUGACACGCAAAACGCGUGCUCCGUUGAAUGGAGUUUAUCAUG

- Variants of: B1
- assay-method-text: polymerase ribozyme fitness, log enrichment relative to wild type (log ratio); higher = more active; in vitro selection for triplet polymerase activity
Fewer inactive variants are shown than the library holds.
Please reply with the number alone, leaving off any unit.

Incoming: Consider the variant A52G C69U A106C C125U and give its measured polymerase ribozyme fitness (log ratio).
Outgoing: -4.12

Incoming: Consider the variant C96G A137U and give its measured polymerase ribozyme fitness (log ratio).
Outgoing: -4

Incoming: Consider the variant C57G A73G C116U and give its measured polymerase ribozyme fitness (log ratio).
Outgoing: -0.324

Incoming: Consider the variant C18U G84A and give its measured polymerase ribozyme fitness (log ratio).
Outgoing: -0.579

Incoming: Consider the variant A21U A41G and give its measured polymerase ribozyme fitness (log ratio).
Outgoing: 1.06

Incoming: Consider the variant U15C C54A C87U G94A A98U C125A and give its measured polymerase ribozyme fitness (log ratio).
Outgoing: -3.98

Incoming: Consider the variant A21C A26C C85U A89C G136A G141A and give its measured polymerase ribozyme fitness (log ratio).
Outgoing: -4.04

Incoming: Consider the variant G58C G59A C85U G133C and give its measured polymerase ribozyme fitness (log ratio).
Outgoing: -1.29

Incoming: Consider the variant A39G A47C and give its measured polymerase ribozyme fitness (log ratio).
Outgoing: -1.49

Incoming: Consider the variant U55A G59C C103U U104G and give its measured polymerase ribozyme fitness (log ratio).
Outgoing: -3.29

Incoming: Consider the variant U31C C76U C96U G136C U144C U148C and give its measured polymerase ribozyme fitness (log ratio).
Outgoing: -3.9

Incoming: Consider the variant A22U C96U A121U U139A and give its measured polymerase ribozyme fitness (log ratio).
Outgoing: -4.03
